- System: Trypanosoma brucei
- test.method.notes: Inhibition of wild type blood stream form of Trypanosoma brucei expressing trypanothione synthase after 72 hrs
- Type: functional, organism-based
pEC50: −log10 of the molar value.
reported.endpoint: pEC50

[[record]]
compound_smiles = "CN(C)CCCNC(=O)Cn1nc(-c2cccc(F)c2)c2ccccc21"
reported_endpoint = "pEC50"
observed_result = 5.15


----------
- test.method.notes: Inhibition of Trypanosoma brucei trypanothione synthase
pIC50: −log10 of the molar value.
reported.endpoint: pIC50

[[record]]
compound_smiles = "CN(C)CCCNC(=O)Cn1nc(-c2cccc(F)c2)c2ccccc21"
reported_endpoint = "pIC50"
observed_result = 7.35


Hey, just so you know, these numbers are from ChEMBL document CHEMBL2429771.
